# Compound, melting point
data = [
    ("C[C@H](O)[C@H](O)[C@@H](O)[C@@H](O)C=O", "135 °C"),
    ("C#CCCCC", "-132 °C"),
    ("O=Cc1cc2c(cc1[N+](=O)[O-])OCO2", "93.5 °C"),
    ("O=[N+]([O-])c1c(Cl)ccc2ccccc12", "99.5 °C"),
    ("C[C@H]1CC[C@@H]2C[C@H]1C2(C)C", "-53 °C"),
    ("C#CCOc1ccc(N)cc1C(=O)NCCCC", "84 °C"),
    ("CCCOCC(C)O (stereo unspecified)", "-80 °C"),
    ("COS(=O)(=O)OC", "-27 °C"),
    ("C1CCCSCC1", "0.5 °C"),
    ("c1ccc(N2CCN(c3ccccc3)CC2)cc1", "165 °C"),
    ("CCCCCOC(=O)CCCCC", "-47 °C"),
    ("Cc1csc(C)c1C", "-26.2 °C"),
    ("CC(=O)C(C)(C)C(C)=O", "19 °C"),
    ("NC(=O)Cc1ccccc1", "157 °C"),
    ("CSc1ncnc2c1ncn2[C@@H]1O[C@H](CO)[C@@H](O)[C@H]1O", "164 °C"),
    ("CCCCOCC", "-124 °C"),
    ("CCCCCCOCCO", "-45.1 °C"),
    ("C/C=C1/C[C@@H](C)[C@](O)(CO)C(=O)OCC2=CCN3CC[C@@H](OC1=O)[C@@H]23", "212 °C"),
    ("NC(=O)Nc1ccccc1", "147 °C"),
    ("CC(=O)Nc1ccc(C)cc1", "152 °C"),
    ("COCc1ccccc1", "-52.6 °C"),
    ("O=C(C1CCCCC1)N1CC(=O)N2CCc3ccccc3C2C1 (stereo unspecified)", "136 °C"),
    ("CCCC(C)C(O)CC (stereo unspecified)", "-123 °C"),
    ("O=[N+]([O-])c1ccc2[nH]cnc2c1", "208 °C"),
    ("O=c1c(O)c(-c2ccc(O)cc2)oc2cc(O)cc(O)c12", "277 °C"),
    ("CC[C@@H]1C(=O)OC[C@@H]1Cc1cncn1C", "34 °C"),
    ("O=C(O)C=Cc1ccco1", "143 °C"),
    ("CC(C)C=O", "-65.9 °C"),
    ("CC1(C)CC[C@]2(C)CC[C@]3(C)C(=CC[C@@H]4[C@@]5(C)CC[C@H](O)C(C)(C)[C@@H]5CC[C@]43C)[C@@H]2C1", "197 °C"),
    ("CCCCCCCCCCCCCCCC(N)=O", "107 °C"),
    ("ClCCI", "-15.6 °C"),
]

Recorded values, source the OPERA property sets (Mansouri et al. 2018).
